Entries annotated with measured ED50
system: Mus musculus; assay: Analgesic activity in Albino-Swiss mouse assessed as inhibition of heat-induced paw licking or jumping behavior administered as ip measured after 30 mins for 45 secs by Eddy and Leimbach's hot plate method; format: functional; details: 0.5 h

{"columns": ["compound", "target", "ED50, mg/kg"],
 "data": [
  ["Cc1c2c(=O)[nH]n(CCN3CCN(c4cccc(C(F)(F)F)c4)CC3)c(=O)c2c(C)n1-c1ccccc1", "Mus musculus", 15.9],
  ["Cc1c2c(=O)[nH]n(CCN3CCN(c4ccccc4F)CC3)c(=O)c2c(C)n1-c1ccccc1", "Mus musculus", 15],
  ["Cc1ccc(Cl)cc1N1CCN(CCn2[nH]c(=O)c3c(C)n(-c4ccccc4)c(C)c3c2=O)CC1", "Mus musculus", 10.3],
  ["CN1CC[C@]23c4c5ccc(O)c4O[C@H]2[C@@H](O)C=C[C@H]3[C@H]1C5 [MORPHINE]", "Mus musculus", 3.5]
]}

###

Target or system Mu-type opioid receptor (Rattus norvegicus, UniProt P33535); recorded quantity pKi.
pKi: −log10 of the molar value.

{"columns": ["compound", "pKi"],
 "data": [
  ["Cc1ccc(Cl)cc1N1CCN(CCn2[nH]c(=O)c3c(C)n(-c4ccccc4)c(C)c3c2=O)CC1", 5.59],
  ["COc1cccc(C2(O)CCCCC2CN(C)C)c1 (stereo not drawn) [TRAMADOL]", 5.62],
  ["Cc1c2c(=O)[nH]n(CCN3CCN(c4ccccc4F)CC3)c(=O)c2c(C)n1-c1ccccc1", 4.95]
]}

###

test: Acute toxicity in ip dosed Albino-Swiss mouse; format: organism-based; conditions: in vivo
test readout: LD50

{"columns": ["smiles structure", "result"],
 "data": [
  ["Cc1c2c(OCCCN3CCN(c4ccccc4)CC3)nn(C)c(=O)c2c(C)n1-c1ccccc1", "1420 mg/kg"],
  ["Cc1c2c(=O)[nH]n(CCN3CCN(c4ccccc4F)CC3)c(=O)c2c(C)n1-c1ccccc1", "> 2000 mg/kg"],
  ["Cc1c2c(=O)[nH]n(CCN3CCN(Cc4ccc5c(c4)OCO5)CC3)c(=O)c2c(C)n1-c1ccccc1", "> 2000 mg/kg"],
  ["Cc1c2c(=O)[nH]n(CCN3CCN(c4ccccc4)CC3)c(=O)c2c(C)n1-c1ccccc1", "> 2000 mg/kg"],
  ["Cc1c2c(=O)[nH]n(CCN3CCC(Cc4ccccc4)CC3)c(=O)c2c(C)n1-c1ccccc1", "> 2000 mg/kg"],
  ["Cc1c2c(=O)[nH]n(CCN3CCN(c4cccc(C(F)(F)F)c4)CC3)c(=O)c2c(C)n1-c1ccccc1", "> 2000 mg/kg"]
]}

###

pIC50: −log10 of the molar value.
Target or system Mu-type opioid receptor (Rattus norvegicus); recorded quantity pIC50.

{"columns": ["compound", "target", "pIC50"],
 "data": [
  ["Cc1ccc(Cl)cc1N1CCN(CCn2[nH]c(=O)c3c(C)n(-c4ccccc4)c(C)c3c2=O)CC1", "Mu-type opioid receptor (Rattus norvegicus)", 5.25],
  ["C=CCN1CC[C@]23CCCC[C@H]2[C@H]1Cc1ccc(O)cc13 [LEVALLORPHAN]", "Mu-type opioid receptor (Rattus norvegicus)", 9.20],
  ["Cc1c2c(=O)[nH]n(CCN3CCN(c4ccccc4F)CC3)c(=O)c2c(C)n1-c1ccccc1", "Mu-type opioid receptor (Rattus norvegicus)", 4.62]
]}
